Test system: Fer (mouse)
Assay: phosphorylation enrichment, bacterial display (enrichment ratio); higher = better substrate or ligand; peptides without Tyr show the background;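 also: 11-residue human phosphosite peptides and single-mutation variants displayed on the E. coli surface, counted by deep sequencing, each peptide's frequency after selection divided by its frequency in the unselected input library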;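 also: frequency after pTyr selection over input frequency; kinase dosed for 20-30% of maximal phosphorylation in three min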
Answer each item with its documented phosphorylation enrichment.
Answers are plain numbers.

# count of solved cases: 4
[
  {
    "sequence-content": "EVDELYREAPI [MYL12B_Y143]",
    "phosphorylation enrichment": 0.62
  },
  {
    "sequence-content": "VVVTKYCKEEL [ATP7B_Y1078_A1074V]",
    "phosphorylation enrichment": 0.554
  },
  {
    "sequence-content": "RDMMDYMLQGV [CYP21A2_Y259]",
    "phosphorylation enrichment": 0.612
  },
  {
    "sequence-content": "MDFRSYPREFG [RBM10_Y44_YF]",
    "phosphorylation enrichment": 0.366
  }
]

Provide phosphorylation enrichment values for the following items, in order.
1. FSGIFYKPESL [L2HGDH_Y103_H98Y_YF]
2. YTHSDYQYSQR [PKP2_Y166]

Ans.
[0.471, 0.42]

Qu. Look at this sequence and give its reported phosphorylation enrichment. KSAAIYNPVIY [RHO_Y301]
Ans. 15.4

###

Target: Jak2 (UniProt O60674)
Sequence (O60674 whole entry, looked up): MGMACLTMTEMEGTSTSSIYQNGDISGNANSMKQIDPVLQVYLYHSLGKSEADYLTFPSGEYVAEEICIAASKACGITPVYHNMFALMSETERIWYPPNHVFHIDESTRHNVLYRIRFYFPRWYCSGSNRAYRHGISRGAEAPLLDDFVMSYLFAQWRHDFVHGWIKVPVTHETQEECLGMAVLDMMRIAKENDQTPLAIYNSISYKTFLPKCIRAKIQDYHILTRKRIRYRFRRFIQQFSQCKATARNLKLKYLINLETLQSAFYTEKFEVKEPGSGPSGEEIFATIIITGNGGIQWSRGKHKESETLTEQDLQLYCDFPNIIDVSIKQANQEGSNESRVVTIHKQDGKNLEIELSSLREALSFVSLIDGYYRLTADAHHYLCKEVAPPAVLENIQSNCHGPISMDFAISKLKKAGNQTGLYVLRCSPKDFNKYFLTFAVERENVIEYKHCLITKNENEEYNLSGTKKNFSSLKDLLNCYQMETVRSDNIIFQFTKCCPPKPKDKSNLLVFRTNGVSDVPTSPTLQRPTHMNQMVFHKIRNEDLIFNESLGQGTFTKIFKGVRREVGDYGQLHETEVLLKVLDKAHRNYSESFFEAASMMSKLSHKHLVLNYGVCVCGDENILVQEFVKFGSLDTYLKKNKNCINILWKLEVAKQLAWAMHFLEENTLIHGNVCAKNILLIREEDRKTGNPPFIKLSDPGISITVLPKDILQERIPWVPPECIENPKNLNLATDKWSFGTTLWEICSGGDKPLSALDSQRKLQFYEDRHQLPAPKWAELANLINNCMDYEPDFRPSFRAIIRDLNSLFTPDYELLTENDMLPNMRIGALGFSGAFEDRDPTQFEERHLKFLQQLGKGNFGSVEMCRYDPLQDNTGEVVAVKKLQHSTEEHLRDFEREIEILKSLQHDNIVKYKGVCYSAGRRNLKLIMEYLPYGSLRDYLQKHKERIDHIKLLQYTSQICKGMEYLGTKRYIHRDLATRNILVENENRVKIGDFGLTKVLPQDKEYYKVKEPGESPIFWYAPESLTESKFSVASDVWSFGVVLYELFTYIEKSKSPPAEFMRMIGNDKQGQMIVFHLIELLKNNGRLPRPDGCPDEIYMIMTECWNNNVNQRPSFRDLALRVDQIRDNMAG
Test: phosphorylation enrichment, bacterial display (enrichment ratio); higher = better substrate or ligand; peptides without Tyr show the background
# cutoff 0.8 applies to phosphorylation enrichment; >= gives 1, < gives 0

The examples below pair each entry with its known result.
[
  {
    "sequence-content": "WDLPEYSFKDP [ITGA3_Y237_S235P_YF]",
    "classification": 1
  },
  {
    "sequence-content": "RKLVDYDSAQH [BIN1_Y150_R154Q]",
    "classification": 0
  },
  {
    "sequence-content": "NTADFYDLFGG [PTPN11_Y63_G60A_YF]",
    "classification": 1
  },
  {
    "sequence-content": "IGEGTYGQVFK [CDK13_Y716_YF]",
    "classification": 0
  }
]

Qu. Quick check, phosphorylation enrichment >= 0.8? PEADKYCLTYA [FGG_Y300_R301C]
Ans. 1

Qu. Try PAVGIYNDNIN [CDCP1_Y707] next.
Ans. 1

Qu. Try AQESNYRLLRR [SLC20A2_Y377] next.
Ans. 0

Qu. Try KALKQYRASPS [DDX27_Y763_G766S] next.
Ans. 0

Qu. Try GLETSYIEDNC [PAH_Y24_Q20L] next.
Ans. 1

###

Target: Fes (UniProt P07332)
Sequence (P07332 whole entry, looked up): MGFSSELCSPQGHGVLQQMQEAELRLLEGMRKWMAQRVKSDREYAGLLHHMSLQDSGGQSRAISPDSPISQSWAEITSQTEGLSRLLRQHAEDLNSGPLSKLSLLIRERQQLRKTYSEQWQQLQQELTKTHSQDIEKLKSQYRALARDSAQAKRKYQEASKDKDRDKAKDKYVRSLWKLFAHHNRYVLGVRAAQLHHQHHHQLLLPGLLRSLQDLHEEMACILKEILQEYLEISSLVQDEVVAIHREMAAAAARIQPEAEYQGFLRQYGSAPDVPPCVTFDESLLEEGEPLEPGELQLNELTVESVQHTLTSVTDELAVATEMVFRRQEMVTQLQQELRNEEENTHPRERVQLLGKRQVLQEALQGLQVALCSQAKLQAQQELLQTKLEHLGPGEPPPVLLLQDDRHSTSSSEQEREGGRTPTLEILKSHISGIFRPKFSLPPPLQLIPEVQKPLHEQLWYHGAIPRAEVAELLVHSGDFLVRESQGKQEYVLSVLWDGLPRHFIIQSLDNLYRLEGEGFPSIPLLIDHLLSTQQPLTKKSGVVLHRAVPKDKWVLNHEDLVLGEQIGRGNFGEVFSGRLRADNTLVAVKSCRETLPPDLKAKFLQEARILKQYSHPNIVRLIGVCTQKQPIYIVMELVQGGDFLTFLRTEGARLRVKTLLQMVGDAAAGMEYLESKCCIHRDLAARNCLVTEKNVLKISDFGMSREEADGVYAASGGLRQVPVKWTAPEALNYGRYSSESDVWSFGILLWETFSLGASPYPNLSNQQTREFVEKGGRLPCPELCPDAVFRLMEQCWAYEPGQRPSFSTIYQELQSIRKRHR
Assay: phosphorylation enrichment, bacterial display (enrichment ratio); higher = better substrate or ligand; peptides without Tyr show the background
# cutoff 0.9 applies to phosphorylation enrichment; >= gives Fulfilled, < gives Not fulfilled

[
  {
    "sequence-content": "ERRLIYASDPK [VPS13D_Y864_T865A]",
    "classification": "Not fulfilled"
  },
  {
    "sequence-content": "AAGGRYDGLLG [HARS2_Y364_V368L]",
    "classification": "Not fulfilled"
  },
  {
    "sequence-content": "TESALYGCTIL [MAP3K21_Y724_V728I]",
    "classification": "Fulfilled"
  }
]

Qu. Quick check, phosphorylation enrichment >= 0.9? KPGLIYNKVNP [SPRED3_Y72_V71I]
Ans. Fulfilled

Qu. Try KFLENYLNRLL [PLD2_Y169_YF] next.
Ans. Not fulfilled

Qu. Try QNTGDDYDLYG [PTPN11_Y62_Y62D] next.
Ans. Fulfilled

Qu. Try FGAHNYHPLPV [OAT_Y55_YF] next.
Ans. Not fulfilled

Qu. Try KLSCSYSHWSA [C4BPA_Y470] next.
Ans. Fulfilled

Qu. Try EEAAGCAQESQ [CAMKV_Y491_Y491C] next.
Ans. Fulfilled
